Listed here: items and their measured pIC50.
Test system: HEK293 (293) cells
Protocol: In vitro cell viability (cell kill) assay, CCK8
Format: cell-based, human
Test Conditions: 293; Table 19
pIC50: −log10 of the molar value.
Value Type: pIC50

[
  {
    "Molecule": "H1H6953N-mc-VC-PAB-MMD (conjugate) VH: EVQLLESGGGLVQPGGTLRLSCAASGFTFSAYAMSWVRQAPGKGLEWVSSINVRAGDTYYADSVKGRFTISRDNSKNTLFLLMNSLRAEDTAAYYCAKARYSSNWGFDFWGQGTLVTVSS VL: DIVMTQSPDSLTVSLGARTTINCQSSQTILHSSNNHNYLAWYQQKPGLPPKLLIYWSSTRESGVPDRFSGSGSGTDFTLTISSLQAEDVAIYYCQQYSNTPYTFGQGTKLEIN",
    "Numeric Value": 6.96
  },
  {
    "Molecule": "H1H6782P-mc-VC-PAB-MMD (conjugate) VH: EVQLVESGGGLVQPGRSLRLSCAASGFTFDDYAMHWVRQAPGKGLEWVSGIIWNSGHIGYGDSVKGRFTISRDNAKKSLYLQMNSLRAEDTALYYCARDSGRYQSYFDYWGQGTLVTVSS VL: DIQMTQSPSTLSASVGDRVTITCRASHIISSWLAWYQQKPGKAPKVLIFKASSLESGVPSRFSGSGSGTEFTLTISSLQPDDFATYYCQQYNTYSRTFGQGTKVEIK",
    "Numeric Value": 6.64
  },
  {
    "Molecule": "H1H6975P-mc-VC-PAB-MMD (conjugate) VH: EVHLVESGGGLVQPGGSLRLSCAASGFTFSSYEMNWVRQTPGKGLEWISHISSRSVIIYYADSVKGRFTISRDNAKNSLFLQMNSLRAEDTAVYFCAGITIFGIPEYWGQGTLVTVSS VL: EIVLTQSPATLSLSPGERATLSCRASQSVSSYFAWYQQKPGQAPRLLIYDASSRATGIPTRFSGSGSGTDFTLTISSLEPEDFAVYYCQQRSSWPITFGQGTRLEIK",
    "Numeric Value": 6.96
  },
  {
    "Molecule": "H1H6782P-mc-VC-PAB-MeNHC3-May (conjugate) VH: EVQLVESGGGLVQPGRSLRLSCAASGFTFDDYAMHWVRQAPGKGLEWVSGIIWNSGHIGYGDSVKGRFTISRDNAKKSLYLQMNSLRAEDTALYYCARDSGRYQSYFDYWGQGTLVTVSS VL: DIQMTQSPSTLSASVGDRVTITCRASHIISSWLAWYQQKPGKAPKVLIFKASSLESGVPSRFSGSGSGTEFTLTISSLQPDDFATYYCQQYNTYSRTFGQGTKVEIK",
    "Numeric Value": 7.22
  }
]
